experimentalReadout: logP
Please give only the number in your answer, with no unit.

Worked set:
[
  {
    "lineNotation": "Clc1ccccc1C=NN=c1ccn(CCCc2ccccc2)cc1",
    "experimentalReadout": "logP",
    "obsValue": 3.9
  },
  {
    "lineNotation": "COc1ccc(C=NN=c2ccn(CCCCCc3ccccc3)cc2)cc1",
    "experimentalReadout": "logP",
    "obsValue": 3.5
  },
  {
    "lineNotation": "Cc1ccc(C=NN=c2ccn(CCc3ccccc3)cc2)cc1",
    "experimentalReadout": "logP",
    "obsValue": 4
  },
  {
    "lineNotation": "C(=NN=c1ccn(CCc2ccccc2)cc1)c1c2ccccc2cc2ccccc12",
    "experimentalReadout": "logP",
    "obsValue": 4.4
  },
  {
    "lineNotation": "Fc1cccc(C=NN=c2ccn(Cc3ccccc3Br)cc2)c1",
    "experimentalReadout": "logP",
    "obsValue": 3.9
  },
  {
    "lineNotation": "C(=NN=c1ccn(CCCCCc2ccccc2)cc1)c1c2ccccc2cc2ccccc12",
    "experimentalReadout": "logP",
    "obsValue": 4.4
  },
  {
    "lineNotation": "COc1ccc(C=NN=c2ccn(CC=Cc3ccccc3)cc2)cc1",
    "experimentalReadout": "logP",
    "obsValue": 3.4
  },
  {
    "lineNotation": "Cc1cccc(Cn2ccc(=NN=CCCc3ccccc3)cc2)c1C",
    "experimentalReadout": "logP",
    "obsValue": 3.9
  },
  {
    "lineNotation": "Clc1cccc(Cl)c1Cn1ccc(=NN=Cc2ccc(Br)cc2)cc1",
    "experimentalReadout": "logP",
    "obsValue": 3.9
  },
  {
    "lineNotation": "Oc1ccccc1C=NN=c1ccn(Cc2ccccc2)cc1",
    "experimentalReadout": "logP",
    "obsValue": 3.2
  }
]

GET /value?item= `COc1ccccc1C=NN=c1ccn(Cc2ccccc2)cc1` &field=logP returns 3.3

GET /value?item= `Cc1cccc(C)c1C=NN=c1ccn(CCCCc2ccccc2)cc1` &field=logP returns 3.3

----------
experimentalReadout: logP
Please give only the number in your answer, with no unit.

Worked set:
[
  {
    "lineNotation": "Clc1cccc(Cl)c1C=NN=c1ccn(CCc2ccccc2)cc1",
    "experimentalReadout": "logP",
    "obsValue": 4
  },
  {
    "lineNotation": "COc1ccccc1C=NN=c1ccn(CCc2ccccc2)cc1",
    "experimentalReadout": "logP",
    "obsValue": 3.4
  }
]

GET /value?item= `Cc1ccc(C=NN=c2ccn(Cc3ccccc3)cc2)cc1` &field=logP returns 3.9

GET /value?item= `Cc1cccc(C)c1C=NN=c1ccn(CCc2ccccc2)cc1` &field=logP returns 3.3

GET /value?item= `Fc1cccc(C=NN=c2ccn(CCCc3ccccc3)cc2)c1` &field=logP returns 3.8

GET /value?item= `Clc1cccc(Cl)c1C=NN=c1ccn(Cc2c(Cl)cccc2Cl)cc1` &field=logP returns 4

GET /value?item= `Brc1ccc(C=NN=c2ccn(CCCCCc3ccccc3)cc2)cc1` &field=logP returns 4

GET /value?item= `C(=NN=c1ccn(CCCCc2ccccc2)cc1)c1cccc2ccccc12` &field=logP returns 4.3

GET /value?item= `O=[N+]([O-])c1ccc(C=NN=c2ccn(CCCc3ccccc3)cc2)cc1` &field=logP returns 3.8
